System: Calu-3
Protocol Notes: drug sensitivity score (DSS) for viability; higher = more toxic; extreme values may be limits of the assay
Test Parameters: 72 h
Listed compounds paired with reported drug sensitivity score

Completed entries (count: 3):
1) O[C@H]1CC[C@H](Nc2nc(-c3ccccc3)nc3[nH]ccc23)CC1 [SLV-320] : 0
2) CN[C@@H](C)C(=O)N[C@H](C(=O)N1CCC[C@H]1c1nc(C(=O)c2ccc(F)cc2)cs1)C1CCCCC1 [LCL-161] : 2
3) N[C@@H](CC(=O)N1CCn2c(nnc2C(F)(F)F)C1)Cc1cc(F)c(F)cc1F [sitagliptin] : 0

# input for lookup
Look up drug sensitivity score with Calu-3 for this compound: O=C(Nc1ccc(S(=O)(=O)Nc2ccccc2Cl)c(Cl)c1)c1ccccn1
1.8

---

System: Calu-3
Protocol Notes: cell viability relative to DMSO; higher = less toxic
Test Parameters: 72 h; 1000 nM
Listed compounds paired with reported cell viability
Please give a number only; it is taken to be in %.

Completed entries (count: 3):
1) CC1(C)[C@@H](OC(=O)CCC(=O)O)CC[C@]2(C)[C@H]3C(=O)C=C4[C@@H]5C[C@@](C)(C(=O)O)CC[C@]5(C)CC[C@@]4(C)[C@]3(C)CC[C@@H]12 [CARBENOXOLONE SODIUM] : 106
2) CN1C(C)(C)CCCC1(C)C : 107
3) COc1ccnc2[nH]cc(C(=O)C(=O)N3CCN(C(=O)c4ccccc4)C[C@H]3C)c12 : 110

Quick one: cell viability of CC(Cc1ccccc1)(NC(=O)CN)c1ccccc1 (centres undefined) [remacemide] ?
98.6

---

Tested on: U2OS
Protocol Notes: cell viability relative to DMSO; higher = less toxic
Test Parameters: 72 h; 10000 nM
Assay Endpoint: cell viability (%)
Please give a number only; it is taken to be in %.

Completed entries (count: 3):
1) CCn1c(=O)c(-c2ccc(Cl)cc2Cl)cc2cnc(Nc3ccc(N4CCNCC4)c(F)c3)nc21 : 43
2) CC(C)n1nc(C#Cc2ccccc2)c2c(N)ncnc21 : 75.7
3) O=c1ncccn1[C@@H]1O[C@H](CO)[C@@H](O)[C@H]1O : 92.6

Quick one: cell viability of O=C(/C=C/c1ccc2ccccc2n1)c1ccncc1 ?
0

Try the compound CCOCOC[C@H](C[C@H](C)C(=O)NO)NC(=O)c1ccc(Oc2ccccc2)cc1
92.6

---

Listed compounds paired with reported cell viability
Tested on: Vero E6
Protocol Notes: cell viability relative to DMSO; higher = less toxic
Test Parameters: 72 h; 1000 nM
Please give a number only; it is taken to be in %.

Completed entries (count: 8):
1) CC(=O)N(C)c1cccc(-c2ccnc3c(C(=O)c4cccs4)cnn23)c1 : 107
2) CC(=O)NCCc1c(Cc2ccccc2)[nH]c2ccccc12 : 94.6
3) CC(=O)c1ccc2c(c1)N(CCCN(C)C)c1ccccc1S2 : 99.4
4) Nc1cccc2c(=O)[nH][nH]c(=O)c12 [monosodium-alpha-luminol] : 95.2
5) O=C(Nc1ccccc1F)N[C@H]1N=C(c2ccccc2)c2ccccc2NC1=O : 95.3
6) CC(=O)CCCCn1c(=O)c2c(ncn2C)n(C)c1=O : 108
7) COc1ccsc1CNCC[C@@]1(c2ccccn2)CCOC2(CCCC2)C1 : 94.5
8) COC(=O)c1ccc2c(c1)nc(NC(=O)c1ccccc1)n2CCCc1ccccc1 : 96.6

Quick one: cell viability of Cc1cc([N+](=O)[O-])ccc1NS(=O)(=O)c1cc(Cl)ccc1Cl ?
92.8

Try the compound CN[C@@H](C)C(=O)N[C@H](C(=O)N1CCC[C@H]1c1nc(C(=O)c2ccc(F)cc2)cs1)C1CCCCC1
107

Try the compound O=C(OOC(=O)c1ccccc1)c1ccccc1 [benzoyl-peroxide]
95

Try the compound Nc1ccc(S(=O)(=O)Nc2ccnn2-c2ccccc2)cc1
99.5

Try the compound CCCC(=O)Nc1ccc(OCC(O)CNC(C)C)c(C(C)=O)c1 (centres undefined)
81.9

Try the compound COc1ccc2c(c1)[C@]13CCCC[C@@H]1[C@H](C2)N(C)CC3
95.9

Try the compound C[C@]1(O)C[C@@H](c2nc(-c3ccc4ccc(-c5ccccc5)nc4c3)c3c(N)nccn32)C1
96.5

Try the compound CC(=O)N1CCC(C(=O)N(CCCN2CCC(Cc3ccc(C(N)=O)cc3)CC2)c2ccc(C)c(Cl)c2)CC1
92.4

---

Test system: Caco-2
Protocol Notes: cell viability relative to DMSO; higher = less toxic
Test Parameters: 72 h; 10000 nM
Assay Endpoint: cell viability (%)
Please give a number only; it is taken to be in %.

Completed entries (count: 2):
1. CCS(=O)(=O)N(C)[C@@H]1c2cc(C#N)ccc2OC(C)(C)[C@H]1O.CCS(=O)(=O)N(C)[C@H]1c2cc(C#N)ccc2OC(C)(C)[C@@H]1O (racemic) [chromanol-(+/-)] : 93.5
2. O=C1N=C2SCCN2C(=O)C1Cc1ccc(Cl)cc1 (stereo unspecified) : 94.9

Quick one: cell viability of OC[C@H]1O[C@@H](n2cnc3c(N[C@H]4CCC[C@@H]4O)ncnc32)[C@H](O)[C@@H]1O ?
107

---

System: U2OS
Protocol Notes: relative viability EC50 (midpoint between 100% and the lowest measured viability); higher = less toxic
Test Parameters: 72 h
Assay Endpoint: relative viability EC50

1) O=C(O)C[C@H](O)C[C@H](O)/C=C/c1c(C2CC2)nc2ccccc2c1-c1ccc(F)cc1 [pitavastatin] : 1280 nM
2) Cc1ccc(Cl)c(OC[C@H](O)CNC(C)C)c1 [1-(2-chloro-5-methylphenoxy)-3-(isopropylamino)-2-propanol] : > 10000 nM
3) CC[C@@]1(O)C(=O)OCc2c1cc1n(c2=O)Cc2cc3c(CN(C)C)c(O)ccc3nc2-1 [topotecan] : 1160 nM
4) CC(=O)Nc1c(I)c(C(=O)O)c(I)c(N(C)C(C)=O)c1I [metrizoic-acid] : > 10000 nM
5) OC1=c2ccccc2=C(NC2CCCCC2)/C1=C\c1ccccc1 : 1880 nM

Quick one: relative viability EC50 of CCc1c(C(=O)NCCc2ccc(N3CCCCC3)cc2)[nH]c2ccc(Cl)cc12 ?
> 10000 nM

Try the molecule Nc1nc(F)nc2c1ncn2[C@@H]1O[C@H](COP(=O)(O)O)[C@@H](O)[C@@H]1O [fludarabine-phosphate]
> 10000 nM

Try the molecule COC(=O)c1ccc2c(c1)nc(NC(=O)c1ccccc1)n2CCCc1ccccc1 [BRD4770]
> 10000 nM

---

Listed compounds paired with reported cell viability
Tested on: Caco-2
Protocol Notes: cell viability relative to DMSO; higher = less toxic
Test Parameters: 72 h; 100 nM
Please give a number only; it is taken to be in %.

1. CC(NCCc1ccc(O)cc1)C(O)c1ccc(O)cc1 (stereo not given) [ritodrine] : 95.5
2. COC(=O)Nc1ccc(-c2nc(N3CCOCC3)c3cnn(C4CCN(Cc5cccnc5)CC4)c3n2)cc1 [WYE-687] : 88
3. CN1C(C)(C)CCCC1(C)C [pempidine] : 95.1

Quick one: cell viability of O=C(NCc1ccc(Oc2ccccc2)cc1)c1nc(-c2cc(Br)c(O)c(Br)c2)no1 [IOWH032] ?
99.1

Try the compound CCCCc1oc2ccc(NS(C)(=O)=O)cc2c1C(=O)c1ccc(OCCCN(CCCC)CCCC)cc1 [dronedarone]
94.7

---

System: U2OS
Protocol Notes: cell viability relative to DMSO; higher = less toxic
Test Parameters: 72 h; 100 nM
Listed compounds paired with reported cell viability
Please give a number only; it is taken to be in %.

Completed entries (count: 2):
1) O=C(Nc1ccc2[nH]ccc2c1)c1ccccc1 : 97.1
2) NC(=O)N1c2ccccc2CC(=O)c2ccccc21 [oxcarbazepine] : 101

Quick one: cell viability of O=C(CCc1ccc(O)cc1)c1c(O)cc(O)cc1O[C@@H]1O[C@H](CO)[C@@H](O)[C@H](O)[C@H]1O ?
93.3

Try the compound Cc1cccc(/C=N/Nc2cc(N3CCOCC3)n3nc(-c4ccncc4)cc3n2)c1
93.9

Try the compound COc1ccc(Br)cc1S(=O)(=O)NC(=O)/C=C/c1ccccc1Cc1ccc2ccccc2c1
94.4

Try the compound CCCC(CCC)C(=O)NCc1ccc2c(cnn2-c2ccccc2OC)c1
99.5

Try the compound CC(=O)N(CC(C)C(=O)O)c1c(I)cc(I)c(N)c1I (centres undefined)
104

Try the compound O=S(=O)(NCCNC/C=C/c1ccc(Br)cc1)c1cccc2cnccc12
102

Try the compound CCn1cc(C(=O)O)c(=O)c2cnc(N3CCCC3)nc21
100

---

Listed compounds paired with reported cell viability
Tested on: U2OS
Protocol Notes: cell viability relative to DMSO; higher = less toxic
Test Parameters: 72 h; 100 nM
Form entry: enter the amount, then its unit.

Completed entries (count: 4):
1) O=C(/C=C/c1ccc2ccccc2n1)c1ccncc1 : 95.4%
2) COC(=O)[C@H](c1ccccc1Cl)N1CCc2sccc2C1 : 95.8%
3) O=C(NCC(=O)N1CCCCC1)Nc1ccc2nnsc2c1 : 96.3%
4) Nc1nc(F)nc2c1ncn2[C@@H]1O[C@H](COP(=O)(O)O)[C@@H](O)[C@@H]1O [fludarabine-phosphate] : 97.4%

Look up cell viability with U2OS for this compound: COc1cccc2c1C(=O)c1c(O)c3c(c(O)c1C2=O)C[C@@](O)(/C(CO)=N/NC(=O)CCCCCN1C(=O)C=CC1=O)C[C@@H]3O[C@H]1C[C@H](N)[C@H](O)[C@H](C)O1
94.8%

Try the compound CCc1cc(O)c(Oc2ccc(C(N)=O)cc2F)cc1F
102%

Try the compound CCCCc1nc(Cl)c(C(=O)O)n1Cc1ccc(-c2ccccc2-c2nn[nH]n2)cc1
101%

Try the compound Cn1cc(/C=C2\C(=O)Nc3cccnc32)c2ccccc21
95.3%

Try the compound CCOCOC[C@H](C[C@H](C)C(=O)NO)NC(=O)c1ccc(Oc2ccccc2)cc1
97.1%
